system: HIV-1ADA; experiment: anti-HIV-1 activity in monocyte/macrophage cultures; assay type: cell-based; details: Human immunodeficiency virus 1; HIV-1ADA, human monocyte/macrophage cultures; read-out: Mo/Mφ EC50
measurement label: EC50

Prompt: Find the measured EC50 of O=c1c2ccccc2n2nnc3ccc(NCCCN4CCN(CCCNc5ccc6nnn7c8ccccc8c(=O)c5c67)CC4)c1c32 [temacrazine] and report it.
Response: 10 nM

* * *

test system: attachment of HIV-1RF to CEM-SS cells; experiment: attachment of virions to CEM-SS cells (cell-bound p24 ELISA); format: cell-based; settings: Human immunodeficiency virus 1, CEM-SS; Table 1A; read-out: I50 Attachment
pIC50: −log10 of the molar value.
measurement label: pIC50

Prompt: Report its pIC50 with attachment of HIV-1RF to CEM-SS cells as the test system: O=c1c2ccccc2n2nnc3ccc(NCCCN4CCN(CCCNc5ccc6nnn7c8ccccc8c(=O)c5c67)CC4)c1c32 [temacrazine]
Response: < 4.00
